Give growth for every item shown.
System: ACHN renal
assay_summary: NCI-60 one-dose screen, 48 h (100 = growth as untreated, 0 = no growth, -100 = all killed)
stated_conditions: 10 µM
The panel holds about 83,000 compounds, 20% with a hit somewhere; the sample as a whole holds those more often.
Hi! Could you send only the number? It should be in %, unit omitted.

Exam item: // fetch growth given entry "CCOC(=O)c1cc(/C=C/c2ccc(Cl)cc2Cl)on1"
Marked response: 2.04

Exam item: // fetch growth given entry "Cc1ccc(O)c(C(=O)c2ccccc2)c1"
Marked response: 104

Exam item: // fetch growth given entry "CN(C)C(C)(C)CC(C)(C)C"
Marked response: 100

Exam item: // fetch growth given entry "O/N=C/c1ccc(O)cc1O"
Marked response: 95.9

Exam item: // fetch growth given entry "N#CC1(Nc2ccc3c4c(cccc24)CC3)CCCCC1"
Marked response: 101

Exam item: // fetch growth given entry "COC(=O)/C=C\C(=O)OC"
Marked response: 113

Exam item: // fetch growth given entry "C/C(=C\c1cc(Cl)ccc1OCC(=O)O)[N+](=O)[O-]"
Marked response: 106

Exam item: // fetch growth given entry Nc1ncnc2c1nc(N)n2C1OC(CO)C(O)C1O (centres undefined)
Marked response: 2.76

Exam item: // fetch growth given entry "Cc1cc(NC(=O)CSCC(=O)O)no1"
Marked response: 105

Exam item: // fetch growth given entry "Cc1ccccc1N=C(c1ccccc1)C1C(=O)c2ccccc2C1=O"
Marked response: 88.3

Exam item: // fetch growth given entry "CC(C)CCOC(=O)c1ccccc1"
Marked response: 111

Exam item: // fetch growth given entry "Cc1ccc(/C=C2\SC(=S)N(c3ccc(F)cc3)C2=O)o1"
Marked response: 48.6

Exam item: // fetch growth given entry "CCCC(=O)c1cc(C)ccc1OC"
Marked response: 103

Exam item: // fetch growth given entry CCCCCCCCCCC1CO1 (centres undefined)
Marked response: 109

Exam item: // fetch growth given entry "CC(=O)c1ccc(C(C)(C)C)cc1"
Marked response: 97.7

Exam item: // fetch growth given entry CC1CC(O)CC(C)(C)C1 (centres undefined)
Marked response: 107

Exam item: // fetch growth given entry "O=C(Nc1ccccc1)OCCc1ccccc1"
Marked response: 104

Exam item: // fetch growth given entry "O=c1cc(-c2ccccc2)nc2cc(-c3ccco3)[nH]n12"
Marked response: 91

Exam item: // fetch growth given entry "CC1(C)Nc2cccc3c(N=Nc4ccc(N=Nc5ccccc5)c5ccccc45)ccc(c23)N1"
Marked response: 77.7

Exam item: // fetch growth given entry "Nc1nc2c(c(-c3nc(N)nc4c3CCc3ccccc3-4)n1)CCc1ccccc1-2"
Marked response: 95.1

Exam item: // fetch growth given entry "O=[N+]([O-])c1ccc(CO)cc1"
Marked response: 111

Exam item: // fetch growth given entry "CCCNC(=O)c1ccc(S(N)(=O)=O)cc1"
Marked response: 101

Exam item: // fetch growth given entry "CCOC(=O)CSc1c([N+](=O)[O-])ncn1C"
Marked response: 101

Exam item: // fetch growth given entry "COc1cc2cc(OC(C)=O)c3cc4c(cc3c2c(OC)c1OC)OCO4"
Marked response: 101

Exam item: // fetch growth given entry "CC(=O)Cc1cc(-c2cc(CC(C)=O)[nH]n2)n[nH]1"
Marked response: 95.1

Exam item: // fetch growth given entry "Cc1nc2c(ccc3ccccc32)s1"
Marked response: 111

Exam item: // fetch growth given entry "CCCC(=O)Nc1ccc2c(c1)CN1C(=O)c3ccccc3C1=N2"
Marked response: 111

Exam item: // fetch growth given entry CCC(O)CC(CC)CO (centres undefined)
Marked response: 105

Exam item: // fetch growth given entry O=P(O)(O)OCC(O)CO (centres undefined)
Marked response: 101

Exam item: // fetch growth given entry "Cc1ccc(S(=O)(=O)O)c(C)c1"
Marked response: 103

Exam item: // fetch growth given entry "CCOC(=O)c1[nH]c(C)c(C(=O)O)c1C"
Marked response: 102

Exam item: // fetch growth given entry CC1CCCC(CC(N)=O)CC1 (centres undefined)
Marked response: 103

Exam item: // fetch growth given entry "O=C(CCNNC(=O)c1ccncc1)NCc1ccccc1"
Marked response: 93

Exam item: // fetch growth given entry "COc1cc(C(=O)N/N=C/c2cccc([N+](=O)[O-])c2)cc(OC)c1OC"
Marked response: 79.9

Exam item: // fetch growth given entry CCCC(C)OCC(=O)O (centres undefined)
Marked response: 102

Exam item: // fetch growth given entry "CNC(=O)c1ccccc1CC1(O)c2ccccc2Oc2ccccc21"
Marked response: 54.4

Exam item: // fetch growth given entry "O=C(Cc1ccc(OCc2ccccc2)cc1)NCc1ccc2c(c1)OCO2"
Marked response: 104

Exam item: // fetch growth given entry "COC(=O)/C=C/C(=O)NC(N)=O"
Marked response: 99.4

Exam item: // fetch growth given entry "O=C1Cc2cc(O)ccc2O1"
Marked response: 105

Exam item: // fetch growth given entry O=C(O)C(c1ccccc1)C(O)c1ccccc1 (centres undefined)
Marked response: 96.6

Exam item: // fetch growth given entry "COc1ccc(NC(=O)CCl)cc1"
Marked response: 88.8

Exam item: // fetch growth given entry CN(C)c1ccc(CNC(C(=O)c2ccccc2)c2ccccc2)cc1 (centres undefined)
Marked response: 101

Exam item: // fetch growth given entry "N#CCCc1ccc(O)cc1"
Marked response: 99.9

Exam item: // fetch growth given entry "O=C(O)c1ccc(S(=O)(=O)O)cc1"
Marked response: 99.5

Exam item: // fetch growth given entry "CCOC(=O)/C(C#N)=C/c1cccc(C)c1"
Marked response: 98.9

Exam item: // fetch growth given entry "O=C1c2ccccc2C(=O)c2c1ccc(C(=O)O)c2[N+](=O)[O-]"
Marked response: 98.8

Exam item: // fetch growth given entry "COC(=O)c1[nH]c(=O)c(C#N)c(C(=O)OC)c1C(=O)c1ccccc1"
Marked response: 98.1

Exam item: // fetch growth given entry "O=C(O)c1ccccc1NCc1ccco1"
Marked response: 115

Exam item: // fetch growth given entry "Cc1cc(N2CCC(N3CCCC3)CC2)nc(/N=C(\N)Nc2ccc(Cl)c(Cl)c2)n1"
Marked response: -27.8

Exam item: // fetch growth given entry "CC(C)(O)C#CC#CC(C)(C)O"
Marked response: 98.8

Exam item: // fetch growth given entry CCCCC(O)c1ccccc1 (centres undefined)
Marked response: 110

Exam item: // fetch growth given entry "c1csc(-c2cc(-c3cc(-c4cccs4)[nH]n3)n[nH]2)c1"
Marked response: 92.7

Exam item: // fetch growth given entry "O=C(O)C(Cc1ccccc1)C(=O)O"
Marked response: 111

Exam item: // fetch growth given entry COc1cc(C2c3cc4c(cc3C3OC(=O)C2C3CO)OCO4)cc(OC)c1OC (centres undefined)
Marked response: 24.9
